// data source = ChEMBL document CHEMBL5291721

Let's go through some AC50 measurements on Motilin receptor (Homo sapiens, UniProt O43193) together.
Sequence (O43193 whole entry): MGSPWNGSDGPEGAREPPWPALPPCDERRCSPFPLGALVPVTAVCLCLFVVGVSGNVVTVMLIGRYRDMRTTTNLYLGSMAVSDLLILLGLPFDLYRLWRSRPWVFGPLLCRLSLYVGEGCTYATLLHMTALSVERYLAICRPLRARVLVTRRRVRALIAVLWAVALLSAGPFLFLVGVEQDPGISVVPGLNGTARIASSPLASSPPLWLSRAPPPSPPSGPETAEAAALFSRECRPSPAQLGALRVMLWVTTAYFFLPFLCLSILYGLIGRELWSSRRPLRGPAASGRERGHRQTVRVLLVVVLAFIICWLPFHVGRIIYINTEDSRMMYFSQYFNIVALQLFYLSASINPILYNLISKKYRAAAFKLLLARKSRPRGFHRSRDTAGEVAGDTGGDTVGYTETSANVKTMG
value-type: AC50

1) CN(C)CCc1c[nH]c2ccc(Cn3cncn3)cc12 [RIZATRIPTAN]: > 10 µM
2) O=C1CN=C(c2ccccc2)c2cc([N+](=O)[O-])ccc2N1 [NITRAZEPAM]: > 10 µM
3) CC(C)Cc1ccc(C(C)C(=O)O)cc1 (stereo unspecified) [IBUPROFEN]: > 10 µM
4) CC(=O)[C@@]1(O)CC[C@H]2[C@@H]3C=C(Cl)C4=CC(=O)[C@@H]5C[C@@H]5[C@]4(C)[C@H]3CC[C@@]21C [CYPROTERONE]: > 10 µM
5) C[C@H](CCC(=O)O)[C@H]1CC[C@H]2[C@@H]3[C@@H](O)C[C@@H]4C[C@H](O)CC[C@]4(C)[C@H]3CC[C@]12C [URSODIOL]: > 30 µM
6) CC1(C)S[C@@H]2[C@H](NC(=O)[C@H](N)c3ccccc3)C(=O)N2[C@H]1C(=O)OCOC(=O)[C@@H]1N2C(=O)C[C@H]2S(=O)(=O)C1(C)C [SULTAMICILLIN]: > 30 µM

====

Entries and their AC50 values follow.
target-under-test: Alpha-1A adrenergic receptor (Homo sapiens); further: assay procedure not described here
Sequence (P35348 whole entry): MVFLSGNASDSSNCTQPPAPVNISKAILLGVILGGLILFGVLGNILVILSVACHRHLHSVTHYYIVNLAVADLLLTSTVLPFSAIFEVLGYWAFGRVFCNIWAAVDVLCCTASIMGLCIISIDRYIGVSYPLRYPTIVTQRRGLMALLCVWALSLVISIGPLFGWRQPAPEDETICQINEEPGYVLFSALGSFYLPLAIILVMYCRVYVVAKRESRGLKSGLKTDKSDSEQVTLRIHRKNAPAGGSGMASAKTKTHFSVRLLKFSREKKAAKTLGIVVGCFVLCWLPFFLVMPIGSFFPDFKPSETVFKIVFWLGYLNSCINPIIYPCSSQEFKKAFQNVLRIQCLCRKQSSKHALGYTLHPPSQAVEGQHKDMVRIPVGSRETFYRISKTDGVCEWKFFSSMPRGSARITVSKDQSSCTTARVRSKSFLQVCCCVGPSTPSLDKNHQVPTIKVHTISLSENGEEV
Type: functional, cell-based
value-type: AC50

1. CCOC(=O)N1CSC[C@H]1C(=O)O [TELMESTEINE]: > 30 µM
2. O=C(O)COc1ccc(C(=O)c2cccs2)c(Cl)c1Cl: > 30 µM
3. CN1CCC(=C2c3ccccc3Sc3ccccc32)CC1 [PIMETHIXENE]: 0.121 µM
4. CCCN(CCC)C(=O)Cc1c(-c2ccc(Cl)cc2)nc2ccc(Cl)cn12 [ALPIDEM]: > 10 µM
5. C[C@H](Cc1cc2c(c(C(N)=O)c1)N(CCCO)CC2)NCCOc1ccccc1OCC(F)(F)F [SILODOSIN]: 0.003 µM
6. CCN(CCCc1ccccc1)CCCc1ccccc1 [ALVERINE]: 0.978 µM
7. O=C(O)CCCCC1CCSS1 (stereo not drawn) [LIPOIC ACID, ALPHA]: > 30 µM
8. C[C@]1(Cn2ccnn2)[C@H](C(=O)O)N2C(=O)C[C@H]2S1(=O)=O [TAZOBACTAM]: > 30 µM
9. CC1=C(/C=C/C(C)=C/C=C/C(C)=C/C(=O)O)C(C)(C)CCC1 [TRETINOIN]: 20.3 µM
10. CCN(CC)C(=S)S [DITIOCARB]: > 1 µM
11. Cc1ncc(COP(=O)(O)O)c(C=O)c1O [PYRIDOXAL PHOSPHATE ANHYDROUS]: > 30 µM
12. C=CCSCC1Nc2cc(Cl)c(S(N)(=O)=O)cc2S(=O)(=O)N1 (stereo not drawn) [ALTHIAZIDE]: > 30 µM
13. C[C@@H]1C[C@H]2[C@@H]3CCC4=CC(=O)C=C[C@]4(C)[C@@]3(Cl)[C@@H](O)C[C@]2(C)[C@@]1(OC(=O)c1ccco1)C(=O)CCl [MOMETASONE FUROATE]: > 10 µM
14. CNC(=O)Oc1cccc2ccccc12 [CARBARIL]: > 30 µM
15. N[C@@H](CS)C(=O)O [CYSTEINE]: > 30 µM
16. CC1=CCC(C(C)(C)O)CC1O (stereo not drawn) [SOBREROL]: > 30 µM
17. CC[C@H](c1ccc(O)cc1)[C@@H](CC)c1ccc(O)cc1 [HEXESTROL]: > 3 µM
18. CC(=O)O[C@]1(C(C)=O)CC[C@H]2[C@@H]3C=C(Cl)C4=CC(=O)CC[C@]4(C)[C@H]3CC[C@@]21C [CHLORMADINONE ACETATE]: 18 µM
19. N[C@@H](CO)C(=O)O [SERINE]: > 30 µM
20. NC(=O)OCC(O)COc1ccc(Cl)cc1 (stereo not drawn) [CHLORPHENESIN CARBAMATE]: > 30 µM
21. Cc1cnc(C(=O)NCCc2ccc(S(=O)(=O)NC(=O)NC3CCCCC3)cc2)cn1 [GLIPIZIDE]: > 3 µM
22. CCCc1nc(C(C)(C)O)c(C(=O)O)n1Cc1ccc(-c2ccccc2-c2nnn[nH]2)cc1 [OLMESARTAN]: > 30 µM
23. O=C1/C(=C2\Nc3ccc(S(=O)(=O)O)cc3C2=O)Nc2ccc(S(=O)(=O)O)cc21 [INDIGOTINDISULFONATE]: > 30 µM
24. CC(C(=O)O)c1ccc(-c2ccccc2)c(F)c1 (stereo not drawn) [FLURBIPROFEN]: > 30 µM
25. Nc1c2ccccc2nc2ccccc12 [AMINACRINE]: 9.77 µM
26. COc1c2ccoc2cc2oc(=O)ccc12 [BERGAPTEN]: > 30 µM
27. CN1C(=O)/C(=N\NC(N)=S)c2ccccc21 [METHISAZONE]: 13.1 µM
28. c1ccc2c(c1)CCc1ccccc1N2C1CN2CCC1CC2 (stereo not drawn) [QUINUPRAMINE]: 2.41 µM
29. Cc1onc(-c2ccccc2)c1-c1ccc(S(N)(=O)=O)cc1 [VALDECOXIB]: > 30 µM
30. CC(CN1CC(=O)NC(=O)C1)N1CC(=O)NC(=O)C1 (stereo not drawn) [RAZOXANE]: > 30 µM
31. CN1CCN(C2=Nc3ccccc3Oc3ccc(Cl)cc32)CC1 [LOXAPINE]: 0.0734 µM
32. C[N+](C)(C)C[C@H](O)CC(=O)[O-] [LEVOCARNITINE]: > 30 µM
33. CC(C)(O)CNc1nc(Nc2ccnc(C(F)(F)F)c2)nc(-c2cccc(C(F)(F)F)n2)n1 [ENASIDENIB]: 20.3 µM
34. CCC(=O)O[C@]1(C(=O)SCF)[C@H](C)C[C@H]2[C@@H]3C[C@H](F)C4=CC(=O)C=C[C@]4(C)[C@@]3(F)[C@@H](O)C[C@@]21C [FLUTICASONE PROPIONATE]: > 30 µM
35. FC(F)(F)c1ccc(CNc2ccc(Cc3c[nH]c4ncc(Cl)cc34)cn2)cn1 [PEXIDARTINIB]: 1.8 µM
36. CC(=O)O[C@]1(C(C)=O)CC[C@H]2[C@@H]3C=C(C)C4=CC(=O)CC[C@@H]4[C@H]3CC[C@@]21C [NOMEGESTROL ACETATE]: > 10 µM
37. CCOC(=O)[C@H](CCc1ccccc1)N[C@@H](C)C(=O)N(CC(=O)O)C1Cc2ccccc2C1: > 30 µM
38. COc1cc(N2CCC(N3CCN(C)CC3)CC2)ccc1Nc1ncc(Cl)c(Nc2ccccc2P(C)(C)=O)n1 [BRIGATINIB]: > 30 µM
